Where these numbers come from: paper PMC9520563

- Test system: HepG2
- procedure_details: cells
- condition_label: Homo sapiens, HepG2, 72 h, read-out: IC50 HepG2
measure: IC50 (µM)

Check out these entries, answers already filled in.
>  <compound>
COc1ccc(/C=C/C(=O)/C=C/c2c(C)nn(-c3cccc([N+](=O)[O-])c3)c2Cl)cc1OC

>  <reported_value>
7.19

$$$$
>  <compound>
COc1cc(/C=C/C(=O)/C=C/c2cn(-c3ccccc3)nc2-c2ccccc2)cc(OC)c1O [Compound 10h]

>  <reported_value>
4.98

$$$$

(P) CCOc1cc(/C=C/C(=O)/C=C/c2c(C)nn(-c3ccccc3)c2Cl)ccc1O
(Q) COc1cc(/C=C/C(=O)/C=C/c2c(C)nn(-c3ccccc3)c2Cl)ccc1O
(R) COc1ccc(/C=C/C(=O)/C=C/c2c(C)nn(-c3cccc([N+](=O)[O-])c3)c2Cl)cc1O
Rank descending by IC50. Use the labels to give the ranking in the order requested.
R, P, Q
(R: 25.3 µM, P: 13.2 µM, Q: 8 µM)
